Measured Half-life of the linker by item
Assay: Hydrolysis of linkers with or without glucose present (half-life by LC-MS or UPLC)
Format: physicochemical
Particulars: 10% DMSO in PBS buffer, 10.000 equiv Glc; pH 7.4, 37°C, 0.42 mM linker

{"Compound": "COc1ccccc1C1N[C@H](C(=O)OCc2ccccc2)CS1 (stereo partly shown)", "Prefix operator": "=", "Half-life of the linker / h": 23}
{"Compound": "COc1ccc(C2N[C@H](C(=O)O)CS2)cc1 (stereo partly shown)", "Prefix operator": "=", "Half-life of the linker / h": 2}
{"Compound": "CC(=O)Nc1ccc(C2N[C@H](C(=O)OCc3ccccc3)CS2)cc1 (stereo partly shown)", "Prefix operator": ">", "Half-life of the linker / h": 72}
{"Compound": "O=C(O)[C@@H]1CSC(Cc2ccccc2)N1 (stereo partly shown)", "Prefix operator": "=", "Half-life of the linker / h": 24}
{"Compound": "O=C(O)[C@@H]1CSC(c2ccccc2)N1 (stereo partly shown)", "Prefix operator": "=", "Half-life of the linker / h": 12}
{"Compound": "COc1ccc(C2N[C@H](C(=O)O)CS2)cc1O (stereo partly shown)", "Prefix operator": "=", "Half-life of the linker / h": 4}
{"Compound": "O=C(OCc1ccccc1)[C@@H]1CSC(c2ccccc2)N1 (stereo partly shown)", "Prefix operator": ">", "Half-life of the linker / h": 48}
{"Compound": "COC(=O)[C@@H]1OC(c2ccccc2OC)O[C@H]1C(=O)OC", "Prefix operator": "=", "Half-life of the linker / h": 1.5}
{"Compound": "O=C(O)[C@@H]1CSC(c2ccc([N+](=O)[O-])cc2)N1 (stereo partly shown)", "Prefix operator": ">", "Half-life of the linker / h": 24}
{"Compound": "COC(=O)[C@@H]1OC(c2ccc(OC)cc2)O[C@H]1C(=O)OC", "Prefix operator": "=", "Half-life of the linker / h": 1.1}
{"Compound": "COc1cccc(C2N[C@H](C(=O)OCc3ccccc3)CS2)c1 (stereo partly shown)", "Prefix operator": ">", "Half-life of the linker / h": 72}
{"Compound": "COc1ccc(C2N[C@H](C(=O)OCc3ccccc3)CS2)cc1 (stereo partly shown)", "Prefix operator": "=", "Half-life of the linker / h": 42}
{"Compound": "O=C(O)[C@@H]1CSC(c2ccccc2O)N1 (stereo partly shown)", "Prefix operator": "=", "Half-life of the linker / h": 0.5}

====

Assay: Hydrolysis of linkers with or without glucose present (half-life by LC-MS or UPLC)
Assay type: physicochemical
Particulars: 10% DMSO in PBS buffer, no Glc; pH 7.4, 37°C, 0.42 mM linker

{"Molecule": "COc1ccc(C2N[C@H](C(=O)O)CS2)cc1 (some centres unmarked)", "Prefix operator": "=", "Half-life of the linker [h]": 4}
{"Molecule": "COC(=O)[C@@H]1OC(c2ccccc2OC)O[C@H]1C(=O)OC", "Prefix operator": "=", "Half-life of the linker [h]": 1.7}
{"Molecule": "O=C(O)[C@@H]1CSC(c2ccccc2)N1 (some centres unmarked)", "Prefix operator": ">", "Half-life of the linker [h]": 48}
{"Molecule": "COC(=O)[C@@H]1OC(c2ccc(OC)cc2)O[C@H]1C(=O)OC", "Prefix operator": "=", "Half-life of the linker [h]": 1.8}
{"Molecule": "O=C(O)[C@@H]1CSC(Cc2ccccc2)N1 (some centres unmarked)", "Prefix operator": ">", "Half-life of the linker [h]": 72}
{"Molecule": "O=C(O)[C@@H]1CSC(c2ccccc2O)N1 (some centres unmarked)", "Prefix operator": "=", "Half-life of the linker [h]": 2}
{"Molecule": "COc1ccc(C2N[C@H](C(=O)O)CS2)cc1O (some centres unmarked)", "Prefix operator": "=", "Half-life of the linker [h]": 10}
{"Molecule": "O=C(O)[C@@H]1CSC(c2ccc([N+](=O)[O-])cc2)N1 (some centres unmarked)", "Prefix operator": ">", "Half-life of the linker [h]": 72}

Reference source for all entries: patent EP3586876A1
